The values you see were collected from paper PMC9352680.

- Experimental target: T1, PUF4 RNA-binding domain (Saccharomyces cerevisiae, UniProt P25339 537-888)
- T1 sequence: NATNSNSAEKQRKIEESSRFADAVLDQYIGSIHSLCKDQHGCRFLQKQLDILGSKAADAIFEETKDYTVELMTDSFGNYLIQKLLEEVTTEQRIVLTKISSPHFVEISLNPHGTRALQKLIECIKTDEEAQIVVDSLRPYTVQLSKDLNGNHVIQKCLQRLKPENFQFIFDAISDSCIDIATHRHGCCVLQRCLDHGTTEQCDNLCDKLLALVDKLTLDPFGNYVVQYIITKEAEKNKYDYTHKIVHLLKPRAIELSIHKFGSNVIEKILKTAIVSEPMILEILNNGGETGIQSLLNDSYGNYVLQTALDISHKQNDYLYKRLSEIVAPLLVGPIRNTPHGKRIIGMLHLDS
- Assay notes: Mg; RNA-MaP; 20 mM Na-HEPES pH 7.4, 30 mM KOAc, 0.75 mM MgCl2, 0.1% Tween-20, 5% glycerol, 0.1 mg/mL BSA, 2 mM DTT; 25 C; 0.0125-409.6 nM protein
- Recorded conditions: tags: N-His6-TEV cleaved; C-SNAP kept, Cy3B-labelled; label: tethered on chip by stalled RNA polymerase

>  <Binder>
UCUCUUUGUGUAUAUAUGUCUCUU (ssRNA) [Id_ii_S1_P3E.2_K3.1_C3.2_[C-2T]_[T-1G]_H3.1_A3.1_F3.1_T3.2_[A10G]]

>  <Unit spec>
nM

>  <Lt gt eq>
=

>  <Kd>
8.9

$$$$
>  <Binder>
Id_ii_S2_P3E.4_K3.3_C3.2_[C-2A]_[T-1A]_H3.3_A3.1_F3.1_T3.2_[T9C]_[A10G] (ssRNA) RNA: UUUGAUUAAUAUGAUAUCGUUCUUUCUAAACACUAUACGUUCUUUCUCGAUAUCAUAUUAAUCUUU

>  <Unit spec>
nM

>  <Lt gt eq>
>

>  <Kd>
2300

$$$$
>  <Binder>
Id_i_S4_P3E.4_K3.3_C3.2_[C-2T]_[T-1C]_H3.3_A3.1_F3.1_T3.2 (ssRNA) RNA: UUUGACAACUGAUCGUUCUUUCUUCACACUAUAUAUUCUUUCUCGAUCAGUUGUCUUU

>  <Unit spec>
nM

>  <Lt gt eq>
=

>  <Kd>
202

$$$$
>  <Binder>
Ic_S2_P4E.1_K4.1_C4.1_H4.1_A4.1_[T5A]_F4.1_[T8A]_[A9G]_T4.1 (ssRNA) RNA: UUUGAUUAAUAUGAUAUCGUUCUUUCUUGUAAAUAGUUCUUUCUCGAUAUCAUAUUAAUCUUU

>  <Unit spec>
nM

>  <Lt gt eq>
=

>  <Kd>
67.7

$$$$
>  <Binder>
UCUCUUUGUAACGUUUCUCUU (ssRNA) [Ic_S1_P4E.1_K4.1_C4.1_H4.1_A4.1_[T5A]_[A6C]_[T7G]_F4.1_[A9T]_T4.1]

>  <Unit spec>
nM

>  <Lt gt eq>
=

>  <Kd>
314

$$$$
>  <Binder>
UCUCUUUGUACCUUUCUCUU (ssRNA) [Ic_S1_P3E.1_K3.1_C3.1_H3.1_A3.1_[T5C]_[A6C]_F3.1_[A8T]_T3.1]

>  <Unit spec>
nM

>  <Lt gt eq>
=

>  <Kd>
34

$$$$
>  <Binder>
UCUCUUCUUGUAUAUAUCUCUUAUCUCUU (ssRNA) [Ie_S1_P3E.2_K3.1_C3.2_H3.1_A3.1_F3.1_[+8TCTCT]_T3.2]

>  <Unit spec>
nM

>  <Lt gt eq>
=

>  <Kd>
8.49

$$$$
>  <Binder>
UCUCUUCGUAUAUAUUAACUCUCUU (ssRNA) [Id_ii_S1_P4E.3_K4.2_C4.2_[T-1G]_H4.2_A4.1_F4.1_T4.2_[G10A]_[T11C]]

>  <Unit spec>
nM

>  <Lt gt eq>
=

>  <Kd>
29.9

$$$$
>  <Binder>
Id_ii_S2_P4E.3_K4.2_C4.2_[C-2T]_H4.2_A4.1_F4.1_T4.2_[G10C]_[T11C] (ssRNA) RNA: UUUGAUUAAUAUGAUAUCGUUCUUUCUUUUAUAUAUUACCUUCUUUCUCGAUAUCAUAUUAAUCUUU

>  <Unit spec>
nM

>  <Lt gt eq>
=

>  <Kd>
8.62

$$$$
>  <Binder>
UCUCUUUUUAUAUAUUACUUCUCUU (ssRNA) [Id_ii_S1_P4E.3_K4.2_C4.2_[C-2T]_H4.2_A4.1_F4.1_T4.2_[G10C]]

>  <Unit spec>
nM

>  <Lt gt eq>
=

>  <Kd>
21

$$$$
>  <Binder>
Ie_S2_P5E.1_K5.1_C5.1_H5.1_[+2TTCC]_A5.1_F5.1_T5.1 (ssRNA) RNA: UUUGAUUAAUAUGAUAUCGUUCUUUCUUGUUCCUAUUAUUAUUCUUUCUCGAUAUCAUAUUAAUCUUU

>  <Unit spec>
nM

>  <Lt gt eq>
=

>  <Kd>
37.6

$$$$
>  <Binder>
Ia_S2_P5E.1_K5.1_C5.1_H5.1_A5.1_F5.1_[A10G]_T5.1 (ssRNA) RNA: UUUGAUUAAUAUGAUAUCGUUCUUUCUUGUAUUAUUGUUCUUUCUCGAUAUCAUAUUAAUCUUU

>  <Unit spec>
nM

>  <Lt gt eq>
=

>  <Kd>
7.81

$$$$
